System: Klebsiella pneumoniae
Experiment: Antibacterial activity against Klebsiella pneumoniae X26
Assay type: functional
Details: Klebsiella pneumoniae; read-out: MIC
Recorded log10 MIC for the following compounds
Response schema: value (number) is log10 of MIC in units of µg/mL.

Study these solved cases before continuing.
| compound | measurement.name | data.value |
| --- | --- | --- |
| CO/N=C(\C(=O)N[C@@H]1C(=O)N2C(C(=O)[O-])=C(C[n+]3cccc4cc[nH]c43)CS[C@H]12)c1csc(N)n1 | log10 MIC | -1.22 |
| CO/N=C(\C(=O)N[C@@H]1C(=O)N2C(C(=O)[O-])=C(C[n+]3ccccc3)CS[C@H]12)c1csc(N)n1 | log10 MIC | -1.52 |
| CO/N=C(\C(=O)N[C@@H]1C(=O)N2C(C(=O)[O-])=C(C[n+]3ccc4scc(C(=O)O)c4c3)CS[C@H]12)c1csc(N)n1 | log10 MIC | -1.82 |
| CO/N=C(\C(=O)N[C@@H]1C(=O)N2C(C(=O)[O-])=C(C[n+]3cccc4c3CCCC4)CS[C@H]12)c1csc(N)n1 [CEFQUINOME] | log10 MIC | -1.52 |
| CO/N=C(\C(=O)N[C@@H]1C(=O)N2C(C(=O)[O-])=C(C[n+]3ccccc3C)CS[C@H]12)c1csc(N)n1 | log10 MIC | -0.60 |
| CO/N=C(\C(=O)N[C@@H]1C(=O)N2C(C(=O)[O-])=C(C[n+]3cc(C)c4ccccc4c3)CS[C@H]12)c1csc(N)n1 | log10 MIC | -1.82 |
| CCC(C)Nc1nc2cc[n+](CC3=C(C(=O)[O-])N4C(=O)[C@@H](NC(=O)/C(=N\OC)c5csc(N)n5)[C@H]4SC3)cc2s1 (stereo partly drawn) | log10 MIC | -2.10 |
| CO/N=C(\C(=O)N[C@@H]1C(=O)N2C(C(=O)[O-])=C(C[n+]3cccc(S(=O)(=O)O)c3)CS[C@H]12)c1csc(N)n1 | log10 MIC | -0.90 |

q: Any idea what its log10 MIC is? The compound is "CO/N=C(\C(=O)N[C@@H]1C(=O)N2C(C(=O)[O-])=C(C[n+]3ccc4[nH]cnc4c3)CS[C@H]12)c1csc(N)n1"
a: -2.10

q: Query: log10 MIC; subject: "CO/N=C(\C(=O)N[C@@H]1C(=O)N2C(C(=O)[O-])=C(C[n+]3cccc4ccsc43)CS[C@H]12)c1csc(N)n1"
a: -1.52

q: Any idea what its log10 MIC is? The compound is "C=Cc1sc[n+](CC2=C(C(=O)[O-])N3C(=O)[C@@H](NC(=O)/C(=N\OC)c4csc(N)n4)[C@H]3SC2)c1C"
a: -1.22

====

Measured ED50, listed per entry for reference.
Test system: Pseudomonas aeruginosa
Test: In vivo efficacy against Pseudomonas aeruginosa infected mice treated at 1 hr and 5 hr post infection
Format: functional
Give a bare numeral; the unit mg/kg is implied.

Past entries and their recorded results:
| compound | ED50 (mg/kg) |
| --- | --- |
| CO/N=C(\C(=O)N[C@@H]1C(=O)N2C(C(=O)[O-])=C(C[n+]3ccc(CC(=O)NO)cc3)CS[C@H]12)c1csc(N)n1 (stereo in doubt; 12) | 8.6 |
| CO/N=C(\C(=O)N[C@@H]1C(=O)N2C(C(=O)[O-])=C(C[n+]3cccc(CC(=O)O)c3)CS[C@H]12)c1csc(N)n1 (stereo in doubt; 24) | 17.4 |
| CO/N=C(\C(=O)N[C@@H]1C(=O)N2C(C(=O)[O-])=C(C[n+]3ccc(CC(=O)NO)cc3)CS[C@H]12)c1csc(N)n1 (stereo in doubt; 9) | 39 |

q: Reported ED50 for CO/N=C(\C(=O)N[C@@H]1C(=O)N2C(C(=O)[O-])=C(C[n+]3ccc(CC(=O)NO)cc3)CS[C@H]12)c1csc(N)n1 (stereo in doubt; 7) : what is it?
a: 19.6

q: Reported ED50 for CO/N=C(\C(=O)N[C@@H]1C(=O)N2C(C(=O)[O-])=C(C[n+]3ccc(CC(=O)NO)cc3)CS[C@H]12)c1csc(N)n1 (stereo in doubt; 13) : what is it?
a: 31

q: Record request: ED50 value, item CO/N=C(\C(=O)N[C@@H]1C(=O)N2C(C(=O)[O-])=C(C[n+]3ccc(CC(=O)NO)cc3)CS[C@H]12)c1csc(N)n1 (stereo in doubt; 20)
a: 20

====

# MIC per entry
Test system: Klebsiella pneumoniae
Assay: Antibacterial activity against Klebsiella pneumoniae X26
Type: functional
Details: Klebsiella pneumoniae; read-out: MIC
Only the number, expressed in µg/mL, is required.

q: Param item = "CO/N=C(\C(=O)N[C@@H]1C(=O)N2C(C(=O)[O-])=C(C[n+]3ccc4sccc4c3)CS[C@H]12)c1csc(N)n1" ; retrieve measured MIC.
a: 0.015

q: # MIC lookup, item "CO/N=C(\C(=O)N[C@@H]1C(=O)N2C(C(=O)[O-])=C(C[n+]3ccc4oc(C)nc4c3)CS[C@H]12)c1csc(N)n1"
a: 0.015

q: Form field: reported MIC of "CO/N=C(\C(=O)N[C@@H]1C(=O)N2C(C(=O)[O-])=C(C[n+]3ccc4ccsc4c3)CS[C@H]12)c1csc(N)n1"
a: 0.015

q: Can you share its MIC? I mean this compound: "CCc1nc2c[n+](CC3=C(C(=O)[O-])N4C(=O)[C@@H](NC(=O)/C(=N\OC)c5csc(N)n5)[C@H]4SC3)ccc2s1"
a: 0.008

q: Which value of MIC has been reported for "CO/N=C(\C(=O)N[C@@H]1C(=O)N2C(C(=O)[O-])=C(C[n+]3csc4c3CCC4)CS[C@H]12)c1csc(N)n1" in the records?
a: 0.06

q: GET /values?readout=MIC&item= "CO/N=C(\C(=O)N[C@@H]1C(=O)N2C(C(=O)[O-])=C(C[n+]3cc(C)cc(C)c3)CS[C@H]12)c1csc(N)n1"
a: 0.03

q: Any idea what its MIC is? The compound is "CCC(CC)c1cc[n+](CC2=C(C(=O)[O-])N3C(=O)[C@@H](NC(=O)/C(=N\OC)c4csc(N)n4)[C@H]3SC2)cc1"
a: 0.03

q: Entry under review: "CO/N=C(\C(=O)N[C@@H]1C(=O)N2C(C(=O)[O-])=C(C[n+]3ccc4occc4c3)CS[C@H]12)c1csc(N)n1" . Reported MIC?
a: 0.015

q: Request the reported MIC associated with "CO/N=C(\C(=O)N[C@@H]1C(=O)N2C(C(=O)[O-])=C(C[n+]3ccc4c(c3)nc(C)n4C)CS[C@H]12)c1csc(N)n1"
a: 0.008

q: Record request: MIC value, item "CO/N=C(\C(=O)N[C@@H]1C(=O)N2C(C(=O)[O-])=C(C[n+]3ccc4[nH]c(C)nc4c3)CS[C@H]12)c1csc(N)n1"
a: 0.008

q: Look up MIC: "CO/N=C(\C(=O)N[C@@H]1C(=O)N2C(C(=O)[O-])=C(C[n+]3ccc4ccccc4c3)CS[C@H]12)c1csc(N)n1"
a: 0.015

q: I'd like to know its MIC. The compound in question is "CO/N=C(\C(=O)N[C@@H]1C(=O)N2C(C(=O)[O-])=C(C[n+]3csc(CCO)c3C)CS[C@H]12)c1csc(N)n1"
a: 0.03

====

Tested on: Streptococcus pneumoniae
Test: Antibacterial activity against Streptococcus pneumoniae
Assay type: functional
measurement.name: MIC (µg/mL)
// note: answer is a bare numeric in µg/mL

| molecule | MIC (µg/mL) |
| --- | --- |
| CO/N=C(\C(=O)N[C@@H]1C(=O)N2C(C(=O)[O-])=C(C[n+]3cccc(CC(=O)O)c3)CS[C@H]12)c1csc(N)n1 (stereo in doubt; 6) | 0.015 |
| CO/N=C(\C(=O)N[C@@H]1C(=O)N2C(C(=O)[O-])=C(C[n+]3ccc(CC(=O)NO)cc3)CS[C@H]12)c1csc(N)n1 (stereo in doubt; 9) | 0.03 |
| CO/N=C(\C(=O)N[C@@H]1C(=O)N2C(C(=O)[O-])=C(C[n+]3ccc(CC(=O)NO)cc3)CS[C@H]12)c1csc(N)n1 (stereo in doubt; 20) | 0.06 |
| CO/N=C(\C(=O)N[C@@H]1C(=O)N2C(C(=O)[O-])=C(C[n+]3cccc(CC(=O)O)c3)CS[C@H]12)c1csc(N)n1 (stereo in doubt; 17) | 0.03 |

q: I have this molecule here, CO/N=C(\C(=O)N[C@@H]1C(=O)N2C(C(=O)[O-])=C(C[n+]3ccc(CC(=O)NO)cc3)CS[C@H]12)c1csc(N)n1 (stereo in doubt; 7) , and I need its recorded MIC.
a: 0.015

====

Recorded MIC, one value per entry.
Tested on: Staphylococcus aureus
Assay: Antibacterial activity against penicillin G resistance Staphylococcus aureus
Type: functional
Settings: Staphylococcus aureus; read-out: MIC
// return the numeric value with its unit appended

The cases that follow already have their MIC on record.
| compound | data.value |
| --- | --- |
| CO/N=C(\C(=O)N[C@@H]1C(=O)N2C(C(=O)[O-])=C(C[n+]3cccc4sccc43)CS[C@H]12)c1csc(N)n1 | 4 µg/mL |
| CO/N=C(\C(=O)N[C@@H]1C(=O)N2C(C(=O)[O-])=C(C[n+]3ccc4[nH]c(C)nc4c3)CS[C@H]12)c1csc(N)n1 | 8 µg/mL |

As a next step, examine the compound that follows.
q: So what's the measured MIC for this one? "C=Cc1sc[n+](CC2=C(C(=O)[O-])N3C(=O)[C@@H](NC(=O)/C(=N\OC)c4csc(N)n4)[C@H]3SC2)c1C"
a: 4 µg/mL
